- assay-target: TAS2R49 (Homo sapiens, UniProt P59543)
- Construct: expressed in transfected cells; host or cells: HEK293T
- Sequence (P59543 whole entry): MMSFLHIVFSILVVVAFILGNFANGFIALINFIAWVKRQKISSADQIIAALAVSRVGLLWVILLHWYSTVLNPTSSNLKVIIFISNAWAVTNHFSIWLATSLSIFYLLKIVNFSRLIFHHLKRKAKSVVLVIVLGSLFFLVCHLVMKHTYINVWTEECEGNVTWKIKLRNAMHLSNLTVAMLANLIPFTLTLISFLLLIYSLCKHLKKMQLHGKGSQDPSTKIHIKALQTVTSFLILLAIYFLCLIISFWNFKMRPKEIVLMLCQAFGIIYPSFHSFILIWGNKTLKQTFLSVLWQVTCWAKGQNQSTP
- protocol-notes: In vitro calcium imaging assay on cloned TAS2R49 in transfected HEK293T cells
- Format: cell-based
metric-name: EC50

Problem: Which EC50 is listed for COc1c2occc2cc2ccc(=O)oc12 ?
Result: 12 µM

* * *

- assay-target: TAS2R10 (Homo sapiens)
- Construct: expressed in transfected cells; host or cells: HEK293T
- protocol-notes: In vitro calcium imaging assay on cloned TAS2R10 in transfected HEK293T cells
- Format: cell-based
- Experimental: Pure phytochemicals were submitted to in vitro assays with a platform of twenty cloned receptors of the bitter taste TAS2R family and four receptors of the TRP family related to the perception of taste and somatosensory sensations. […] For those compounds showing activity on one or more receptor(s), the concentration/response curves were plotted and the EC50 calculated. […] For the bitter platform experiments, cells were cultured, transfected and analyzed as previously described. […]
pEC50: −log10 of the molar value.
metric-name: pEC50

Problem: Which measured pEC50 value corresponds to COc1c2occc2cc2ccc(=O)oc12 ?
Result: ≤ 4.69

* * *

Listing: pEC50 of selected molecules
- assay-target: TAS2R10 (Homo sapiens)
- Construct: expressed in transfected cells; host or cells: HEK293T
- Sequence (Q9NYW0 1-307): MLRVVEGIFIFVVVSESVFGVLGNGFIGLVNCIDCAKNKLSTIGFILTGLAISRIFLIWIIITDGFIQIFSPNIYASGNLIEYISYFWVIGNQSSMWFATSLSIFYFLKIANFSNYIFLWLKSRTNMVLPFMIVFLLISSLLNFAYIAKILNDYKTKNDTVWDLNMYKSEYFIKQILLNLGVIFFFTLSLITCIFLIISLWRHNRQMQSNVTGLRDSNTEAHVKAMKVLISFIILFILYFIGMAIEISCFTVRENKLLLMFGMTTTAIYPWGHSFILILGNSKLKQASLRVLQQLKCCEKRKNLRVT
- protocol-notes: In vitro calcium imaging assay on cloned TAS2R10 in transfected HEK293T cells
- Type: cell-based
- experimental-setup: concentration/response curve; values with ≥ estimated, curve did not saturate; read-out: EC50 TAS2R10
Scale: negative log10 of molar concentration, which is what pEC50 denotes.

Some molecules with known pEC50 results, for comparison:
# molecule, pEC50
rows = [
    ("CC[N+](CC)(CC(=O)Nc1c(C)cccc1C)Cc1ccccc1 [Denatonium Benzoate, reference compound]", 5.08),
    ("COc1c2ccoc2c(OC)c2oc(=O)ccc12 [Compound 5, isopimpinellin]", 4.92),
]

Could you now look at the following molecule, please?
Problem: I am curious: what pEC50 value has been reported for COc1c2ccoc2cc2oc(=O)ccc12 [Compound 3, bergapten] ?
Result: 5.55

* * *

- assay-target: TAS2R14 (Homo sapiens)
- Construct: expressed in transfected cells; host or cells: HEK293T
- Sequence (Q9NYV8 whole entry): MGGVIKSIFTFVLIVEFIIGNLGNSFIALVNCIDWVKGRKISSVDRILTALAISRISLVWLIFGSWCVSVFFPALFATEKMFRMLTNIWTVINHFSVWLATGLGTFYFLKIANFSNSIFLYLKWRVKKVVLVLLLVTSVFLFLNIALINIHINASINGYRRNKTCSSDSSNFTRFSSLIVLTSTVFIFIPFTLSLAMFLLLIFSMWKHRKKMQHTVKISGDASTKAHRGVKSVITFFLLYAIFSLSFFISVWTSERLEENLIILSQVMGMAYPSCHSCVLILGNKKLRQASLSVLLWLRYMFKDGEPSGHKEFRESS
- protocol-notes: In vitro calcium imaging assay on cloned TAS2R14 in transfected HEK293T cells
- Type: cell-based
metric-name: EC50 (nM)
Numbers only; they are read as nM.

Problem: # EC50 lookup, item COc1cccc2c1cc([N+](=O)[O-])c1c(C(=O)O)cc3c(c12)OCO3 [Aristolochic Acid, reference compound]
Result: 2300

* * *

- assay-target: TAS2R14 (Homo sapiens)
- Construct: expressed in transfected cells; host or cells: HEK293T
- protocol-notes: In vitro calcium imaging assay on cloned TAS2R14 in transfected HEK293T cells
- Format: cell-based
- experimental-setup: single dose, qualitative
metric-name: TAS2R14 screening result

Solved entries (count: 4):
# compound, test-result
data = [
    ("CCCCCCCC(C)=O", "−"),
    ("COc1c2occc2cc2ccc(=O)oc12", "+"),
    ("C[C@@H]1O[C@@H](OC[C@H]2O[C@@H](Oc3c(-c4ccc(O)c(O)c4)oc4cc(O)cc(O)c4c3=O)[C@H](O)[C@@H](O)[C@@H]2O)[C@H](O)[C@H](O)[C@H]1O", "−"),
    ("CCCCCCCCCC(C)=O", "−"),
]

Problem: GET /values?readout=TAS2R14 screening result&item= COc1cc2nc3occc3c(OC)c2cc1OC
Result: −

Problem: Endpoint output: TAS2R14 screening result of COc1ccc2c(OC)c3ccoc3nc2c1OC . Value?
Result: +

Problem: Endpoint output: TAS2R14 screening result of C=CC(C)(C)c1cc2cc3c(cc2oc1=O)OC(C(C)(C)OC(C)=O)C3 (stereo not drawn) . Value?
Result: −

Problem: Name the recorded TAS2R14 screening result for COc1c2ccoc2c(OC)c2oc(=O)ccc12 .
Result: +

Problem: Value lookup for TAS2R14 screening result; key = COc1c2ccoc2cc2oc(=O)ccc12
Result: −
